Target: Mtb L-alanine dehydrogenase (AlaDH, Rv2780) (Mycobacterium tuberculosis)
Sequence (P9WQB1 whole entry, looked up): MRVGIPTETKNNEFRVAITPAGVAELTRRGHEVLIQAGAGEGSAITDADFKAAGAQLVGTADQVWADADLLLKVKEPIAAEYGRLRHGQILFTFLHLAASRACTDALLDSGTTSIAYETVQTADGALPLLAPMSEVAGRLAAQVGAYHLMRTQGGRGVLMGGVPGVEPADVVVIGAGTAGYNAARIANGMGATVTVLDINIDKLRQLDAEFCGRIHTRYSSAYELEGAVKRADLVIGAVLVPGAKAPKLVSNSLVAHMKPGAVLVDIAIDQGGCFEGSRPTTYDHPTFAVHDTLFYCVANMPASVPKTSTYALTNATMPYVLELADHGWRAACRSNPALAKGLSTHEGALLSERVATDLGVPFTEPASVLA
Format: binding
Details: SDS gel densitometry, Fig 3a
Decide using Ratio against N6-methyl ado alone. Strictly below 2: Fulfilled. Equal to or above 2: Not fulfilled.

Study these solved cases before continuing.
MOLECULE | SYSTEM_UNDER_TEST | CLASSIFICATION
CNc1ncnc2c1ncn2[C@@H]1O[C@H](CO)[C@@H](O)[C@H]1O [D30, N6-methyl adenosine] | Mtb L-alanine dehydrogenase (AlaDH, Rv2780) (Mycobacterium tuberculosis) | Fulfilled
CCNc1ncnc2c1ncn2[C@@H]1O[C@H](CO)[C@@H](O)[C@H]1O [N6-ethyl adenosine] | Mtb L-alanine dehydrogenase (AlaDH, Rv2780) (Mycobacterium tuberculosis) | Not fulfilled
CC(=O)Nc1ncnc2c1ncn2[C@@H]1O[C@H](CO)[C@@H](O)[C@H]1O [N6-acetyl ado] | Mtb L-alanine dehydrogenase (AlaDH, Rv2780) (Mycobacterium tuberculosis) | Fulfilled
CCCNc1ncnc2c1ncn2[C@@H]1O[C@H](CO)[C@@H](O)[C@H]1O [N6-propyl adenosine] | Mtb L-alanine dehydrogenase (AlaDH, Rv2780) (Mycobacterium tuberculosis) | Not fulfilled
CC(C)CNc1ncnc2c1ncn2[C@@H]1O[C@H](CO)[C@@H](O)[C@H]1O [N6-isobutyl adenosine] | Mtb L-alanine dehydrogenase (AlaDH, Rv2780) (Mycobacterium tuberculosis) | Not fulfilled

Would you kindly look at the next entry?
I wonder whether CC(C)C(=O)Nc1ncnc2c1ncn2[C@@H]1O[C@H](CO)[C@@H](O)[C@H]1O [N6-isobutyoyl adenosine] has Ratio against N6-methyl ado below 2. Can you tell? Fulfilled

----------
Target: Mycobacterium tuberculosis L-alanine dehydrogenase (Mycobacterium tuberculosis)
VALUE_KIND: pKi
Lab note — pKi values are minus log10 of concentrations in M.

For the molecule CC(C)C(=O)Nc1ncnc2c1ncn2[C@@H]1O[C@H](CO)[C@@H](O)[C@H]1O [N6-isobutyoyl adenosine] , what pKi is on record? 2.43

----------
Target: Mtb L-alanine dehydrogenase (AlaDH, Rv2780) (Mycobacterium tuberculosis)
Type: binding
Conditions: SDS gel densitometry, Fig 3a
VALUE_KIND: Integrated band volume

SMILES | Integrated band volume
CC(C)CNc1ncnc2c1ncn2[C@@H]1O[C@H](CO)[C@@H](O)[C@H]1O | 143,252

Please state recorded Integrated band volume (tested on Mtb L-alanine dehydrogenase (AlaDH, Rv2780) (Mycobacterium tuberculosis)) of CNc1ncnc2c1ncn2[C@@H]1O[C@H](CO)[C@@H](O)[C@H]1O 41,418

Give Mtb L-alanine dehydrogenase (AlaDH, Rv2780) (Mycobacterium tuberculosis) Integrated band volume for CCCNc1ncnc2c1ncn2[C@@H]1O[C@H](CO)[C@@H](O)[C@H]1O 126,378

Record CCNc1ncnc2c1ncn2[C@@H]1O[C@H](CO)[C@@H](O)[C@H]1O : what is its Integrated band volume with Mtb L-alanine dehydrogenase (AlaDH, Rv2780) (Mycobacterium tuberculosis)? 87,674

Reported Integrated band volume for Mtb L-alanine dehydrogenase (AlaDH, Rv2780) (Mycobacterium tuberculosis), given CC(=O)Nc1ncnc2c1ncn2[C@@H]1O[C@H](CO)[C@@H](O)[C@H]1O ? 5,015

Find the measured Integrated band volume: item CC(C)C(=O)Nc1ncnc2c1ncn2[C@@H]1O[C@H](CO)[C@@H](O)[C@H]1O , target or system Mtb L-alanine dehydrogenase (AlaDH, Rv2780) (Mycobacterium tuberculosis). 29,087

Data provenance is paper PMC9671377.
